Reference for the values: patent US10174013B2

- Test system: HEL92 cells
- EXPERIMENT: Growth inhibition, MTS assay, HEL92
- Format: cell-based, Human
- TEST CONDITIONS: 72 hours, MTS cell viability; read-out: HEL92 ED50
- Excerpt: The following cell lines, were obtained and used in tests as outlined below: • Human myelomonocytic, biphenotypic leukemia MV4-11 cells (harboring a Flt3-ITD mutation); • Human Acute Myeloid Leukemia MOLM16 cells; • Human Acute Myeloid Leukemia MOLM13 cells (harboring a Flt3-ITD mutation); • Human Myeloid Leukemia KG-1 cells; • Human erythroleukemia HEL92 cells; • Human mantle cell lymphoma Jeko-1 cells; • Human hepatocellular carcinoma HepG2 cells; and • Human colon adenocarcinoma SW-480 cells. […]
MEASURED ATTRIBUTE: IC50 (µM)
Numbers only; they are read as µM.

Example cases with answers are listed next.
## Task GET /values?readout=IC50&item= O=[N+]([O-])c1c(Br)c(Br)cc2c1nc(N[C@@H]1CCCNC1)n2CC1CC1
## Result 5.7

## Task GET /values?readout=IC50&item= CC(C)Cn1c(N2CCC[C@@H](N)C2)nc2c([N+](=O)[O-])c(Br)c(Br)cc21.Cl
## Result 5.8

## Task GET /values?readout=IC50&item= CCn1c(NC2CCC(N)CC2)nc2c([N+](=O)[O-])c(Br)c(Br)cc21 (centres unmarked)
## Result 7.6

## Task GET /values?readout=IC50&item= O=[N+]([O-])c1c(Br)c(Br)cc2c1nc(N[C@@H]1CCNC1)n2CC1CC1
## Result 5.5

## Task GET /values?readout=IC50&item= CCCn1c(N2CC[C@@H](N)C2)nc2c([N+](=O)[O-])c(Br)c(Br)cc21
## Result 5.2

## Task GET /values?readout=IC50&item= CC(C)n1c(N2CCNCC2CO)nc2c([N+](=O)[O-])c(Br)c(Br)cc21 (centres unmarked)
## Result 4.5

## Task GET /values?readout=IC50&item= NCCCNc1nc2c([N+](=O)[O-])c(Br)c(Br)cc2n1CC1CC1
## Result 5.8

## Task GET /values?readout=IC50&item= CCn1c(N2CCCC(N)C2)nc2c([N+](=O)[O-])c(Br)c(Br)cc21.Cl (centres unmarked)
## Result 5.0

## Task GET /values?readout=IC50&item= CC(C)n1c(N2CCC(N)CC2)nc2c([N+](=O)[O-])c(Br)c(Br)cc21
## Result 5.8

## Task GET /values?readout=IC50&item= CC(C)n1c(C2CCCC(N)C2)nc2c([N+](=O)[O-])c(Br)c(Br)cc21 (single isomer, unassigned) [Example 26C]
## Result 3.0

Let's switch to this molecule now.
## Task GET /values?readout=IC50&item= CC(C)n1c(NC2CCNCC2)nc2c([N+](=O)[O-])c(Br)c(Br)cc21
## Result 5.8
